Hello, the source for this data is paper PMC11514473, in case you need it.

- studySystem: T1, 285bZIP E295A (human, UniProt P16220-1 285-339, C300S;C310S;C337S;E295A)
- T1 sequence: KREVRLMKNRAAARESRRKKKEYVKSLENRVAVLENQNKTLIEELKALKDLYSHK
- assayComment: stopped-flow fluorescence (koff/kon); 10 mM Mg2+; 10 mM MES pH 6.5, 150 mM NaCl, 10 mM MgCl2, 0.05% Tween-20, 25 C; NMR: 10 mM Tris-d11, 150 mM NaCl, 10 mM MgCl2, 1 mM NaN3, 5% D2O (NOE at 25 C)
- conditionLabel: protein: recombinant; tags: extra N-terminal Gly; chain copies: 2; label: 5' Alexa Fluor 488; hairpin (self-annealing, 11 bp stem, CCCC loop)
reportedMetric: Kd (nM)
The reply should be a number in nM, with the unit left off.

Param item = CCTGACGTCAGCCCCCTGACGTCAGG (structured_DNA) [AlexaFluor488-CREh] ; retrieve measured Kd.
0.239
